# TARGET DESC: Mu-type opioid receptor (Homo sapiens)
# Sequence (P35372 whole entry): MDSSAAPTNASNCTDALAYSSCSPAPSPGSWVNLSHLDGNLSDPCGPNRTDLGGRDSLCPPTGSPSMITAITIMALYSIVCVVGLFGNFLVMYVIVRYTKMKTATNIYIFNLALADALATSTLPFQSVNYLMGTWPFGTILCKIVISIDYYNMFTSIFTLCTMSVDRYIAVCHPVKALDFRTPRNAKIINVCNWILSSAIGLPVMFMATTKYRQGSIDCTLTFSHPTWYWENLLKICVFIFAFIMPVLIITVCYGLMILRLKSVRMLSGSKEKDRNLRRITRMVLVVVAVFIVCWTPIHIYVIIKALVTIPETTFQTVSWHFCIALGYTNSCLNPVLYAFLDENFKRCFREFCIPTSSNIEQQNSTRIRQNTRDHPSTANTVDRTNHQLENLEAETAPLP
# METHOD: biochemical
# Format: cell-based, CHO
pKi: −log10 of the molar value.
QUANTITY MEASURED: pKi

compound="C=CCN1CC[C@]23CCCC[C@H]2[C@H]1Cc1ccc(O)cc13 [LEVALLORPHAN]" measured_result=9.32

###

# TARGET DESC: Kappa-type opioid receptor (Homo sapiens)
# Sequence (P41145 whole entry): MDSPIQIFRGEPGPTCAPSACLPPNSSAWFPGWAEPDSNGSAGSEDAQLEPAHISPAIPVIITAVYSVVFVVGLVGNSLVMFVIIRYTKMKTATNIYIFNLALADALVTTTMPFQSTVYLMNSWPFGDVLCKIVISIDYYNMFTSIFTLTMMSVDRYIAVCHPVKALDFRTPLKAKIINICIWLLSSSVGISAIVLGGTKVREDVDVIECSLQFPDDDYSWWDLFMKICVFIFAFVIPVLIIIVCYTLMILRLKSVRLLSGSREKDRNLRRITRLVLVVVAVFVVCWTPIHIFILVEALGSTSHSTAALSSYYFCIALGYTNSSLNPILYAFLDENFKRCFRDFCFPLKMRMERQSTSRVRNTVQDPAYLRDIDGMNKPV
# METHOD: Displacement of [125I]-IBNtxA from KOR-1 expressed in CHO cells
# Type: cell-based
pKi: −log10 of the molar value.
QUANTITY MEASURED: pKi

structure_smiles_string=N=C(N)Nc1ccc2[nH]c3c(c2c1)C[C@@]1(O)[C@H]2Cc4ccc(O)c5c4[C@@]1(CCN2CC1CC1)[C@H]3O5 measured_result=9.82
